Parameter: composite z-score. Scope: all listed entries.
protocolSummary: small-molecule microarray binders of probe aCHRDL2, primary screen, biochemical, biotinylated probe, 635/667 nm fluorescence (AID 1100)
runConditions: higher = more signal
property: composite z-score

• NC(=O)N1C(=O)C2C(C1=O)C1C=C(c3ccc(CO)cc3)C2C(c2cccs2)N1Cc1cccc(OC(F)(F)F)c1 (stereo not drawn) = 1.02
• O=C1O[C@H](c2ccccc2)[C@H](c2ccccc2)N2[C@H]1[C@@H](C(=O)N1CCCCCCC1)[C@]1(C(=O)Nc3ccc(C#CCCO)cc31)[C@H]2c1ccccc1OCCO = 1.53
• CCOC(=O)C[C@H]1[C@H](OC(=O)c2cc3ccccc3oc2=O)[C@@H](NC(=O)c2ccccc2)c2cc(OCCCO)ccc2N1C(=O)c1ccc2ccccc2n1 = -0.446

----------
Parameter: composite z-score. Scope: all listed entries.
tgt: Carbonic anhydrase 2 (Homo sapiens) (UniProt P00918)
protocolSummary: CAII small-molecule binders, profiling panel, biochemical, small-molecule microarray, Alexa647-labelled CAII (AID 1122)
runConditions: CAII-A647 binding fluorescence, higher = more signal
property: composite z-score

- COC(=O)[C@@]1(Cc2ccc(F)cc2)[C@H]2c3cc(C(=O)N(C)C)n(Cc4ccccc4)c3C[C@H]2CN1C(=O)c1ccccc1: 0.183
- COC(=O)[C@@]1(Cc2ccc(OC)cc2)[C@@H]2C(=CC(=O)[C@H]2CC(=O)C(=O)N2CCCC2)CN1C(=O)c1ccccc1: 0.558
- C[C@H]1NC(=O)[C@@]23C(=O)N[C@@H](Cc4ccccc4)C2[C@H](C)[C@@]2(C)O[C@H]2C3/C=C/C/C=C\CNC(=O)[C@@H]2CCCN2C1=O (stereo partly drawn): 0.507

----------
Parameter: composite z-score. Scope: all listed entries.
protocolSummary: binders of probe aFST on microarray, primary screen, stem cell growth factor project, biochemical, small-molecule microarray, fluorescence 635/667 (AID 1086);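 further: score merges 667 nm fluorescence with signal-to-noise of each printed compound spot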
runConditions: higher = more signal
property: composite z-score

* CC(C)C(O)C1C=CC2C(=O)N(c3ccccc3)C(=O)C2N1Nc1ccc([N+](=O)[O-])cc1 (centres undefined) | 0.886
* C=CC[C@@]12N=C(c3ccc(OCCCO)cc3)O[C@@H]1c1ccccc1N(C)C2=O | 0.593
* C=C(CCCC)/C(=C/C[C@@H](OC(C)=O)c1ccc(OCCO)cc1)c1cnc2ccccc2c1 | -0.156
* CC(CO)N1C(=O)[C@@H]2C3C(=O)OCCC/C=C\[C@H]3OC23C=CCN(C(C)(C)C)C(=O)[C@@H]13 (some centres undefined) | -0.269
* COc1ccc(C(=O)Nc2ccc(CN3C(=O)[C@]4(O[C@H](CCO)[C@@H]([Si](C)(C)c5ccc(OC)cc5)[C@@H]4C)c4ccccc43)cc2)cc1 | 0.305
* C#C[C@H](O[Si](C#Cc1ccc(Oc2ccccc2)cc1)(C(C)C)C(C)C)c1ccccc1 | 0.315
* CCOC(=O)C[C@H]1[C@H](OC(=O)c2cc3ccccc3oc2=O)[C@@H](NC(=O)c2ccccc2)c2cc(OCCCO)ccc2N1C(=O)c1ccc2ccccc2n1 | 0.312
* COCCOC(=O)N1C(=O)[C@@]2(c3cc(C#CCC(C(=O)OC)C(=O)OC)ccc31)[C@H](c1ccccc1OCCO)N1[C@H](c3ccccc3)[C@H](c3ccccc3)OC(=O)[C@H]1[C@@H]2C(=O)N1CCN(c2ncccn2)CC1 | 0.74
* CC1(C)[C@@H]2CC(C(O)C3C=CC4C(=O)N(c5ccccc5)C(=O)C4N3Nc3ccc([N+](=O)[O-])cc3)=C[C@H]1C2 (some centres undefined) | 0.352
* CCCCCN1CC=CC23O[C@@H]4/C=C\CCC(C)OC(=O)C4[C@H]2C(=O)N(C(C)CO)[C@@H]3C1=O (some centres undefined) | -0.258
* CCCCC(CC)C(O)C1C=CC2C(=O)N(Cc3ccccc3)C(=O)C2N1n1cnnc1 (centres undefined) | 0.246
* COC(=O)[C@@]1(Cc2ccccc2)N=C(c2ccc(OCCCO)cc2)O[C@H]1c1ccccc1 | -0.053
* COCCOC(=O)N1C(=O)[C@@]2(c3cc(C#Cc4ccc(OC)cc4)ccc31)[C@H](c1ccccc1OCCO)N1[C@H](c3ccccc3)[C@H](c3ccccc3)OC(=O)[C@H]1[C@@H]2C(=O)NC[C@H](O)c1ccccc1 | 0.499
* CC(C)(C)OC(=O)CC[C@]1(C(=O)N2CCOCC2)N=C(c2ccc(OCCCO)cc2)O[C@H]1c1ccccc1N=[N+]=[N-] | 1.06

----------
tgt: NADPH oxidase 2 (Homo sapiens)
protocolSummary: NOX2-dependent H2O2 signal modulators, primary screen, NOX inhibitor project, cell-based, HEK293-NOX2, PMA-stimulated, Amplex Red fluorescence (AID 1159); further: test concentration not given here
runConditions: 45 min, higher = more signal, called active from +8 up or from −8 down
Our labelling divides records by z-score into ranges: low = under -2, intermediate = from -2 up to 1, high = 1 and over

• CC(C)(C)OC(=O)CC[C@]1(C(=O)N2CCOCC2)N=C(c2ccc(OCCCO)cc2)O[C@H]1c1ccccc1N=[N+]=[N-] = intermediate
• [N-]=[N+]=Nc1ccccc1[C@@H]1OC(c2ccc(OCCCO)cc2)=N[C@]1(CCS(=O)(=O)c1ccccc1)C(N)=O = intermediate
• C=CCOC(=O)[C@H]1[C@@H]2C(=O)O[C@@H](c3ccccc3)[C@@H](c3ccccc3)N2[C@@H](c2ccc(OCCOC(=O)[C@H]3C[C@H]4C(=O)N[C@@H](CCCCNC(C)=O)C(=O)N4[C@H]3c3ccc(O)cc3)cc2)[C@]12C(=O)Nc1ccc(I)cc12 = high
• CC(CO)N1C(=O)[C@@H]2C3C(=O)OCCC/C=C\[C@H]3OC23C=CCN(C(C)(C)C)C(=O)[C@@H]13 (stereo partly specified) = intermediate
• C=CC[C@@]12N=C(c3ccc(OCCCO)cc3)O[C@@H]1c1ccccc1N(C)C2=O = low
• C=CCOC(=O)[C@@H]1[C@H]2C(=O)O[C@H](c3ccccc3)[C@H](c3ccccc3)N2[C@H](c2ccc(OCCOC(=O)[C@@H]3C[C@@H]4C(=O)NCC(=O)N4[C@@H]3c3ccc(O)cc3)cc2)[C@@]12C(=O)Nc1ccc(I)cc12 = high
• COCCOC(=O)N1C(=O)[C@@]2(c3cc(C#Cc4ccc(OC)cc4)ccc31)[C@H](c1ccc(OCCO)cc1)N1[C@H](c3ccccc3)[C@H](c3ccccc3)OC(=O)[C@H]1[C@@H]2C(=O)N1CCN(c2ncccn2)CC1 = intermediate
• Cc1ccc(S[C@]2(C(=O)NCCCN(C)C)CC(=O)N(Cc3cc(C(F)(F)F)cc(C(F)(F)F)c3)[C@@H]2c2ccc(CO)cc2I)cc1 = high
• NC(=O)NCC#Cc1ccc2c(c1)[C@]1(C(=O)N2)[C@H](C(=O)Nc2nc3ccccc3s2)[C@H]2C(=O)O[C@H](c3ccccc3)[C@H](c3ccccc3)N2[C@@H]1c1ccccc1OCCO = intermediate
• O=C1N[C@@H](Cc2ccccc2)C(=O)N2[C@@H]1C[C@@H](C(=O)O)[C@H]2c1cccc(OCCO)c1 = low
• CCOC(=O)C[C@H]1[C@H](OC(=O)c2ccc(-c3ccccc3)cc2)[C@@H](NC(=O)Cc2ccc(OC)cc2)c2cc(OCCCO)ccc2N1C(=O)c1ccccc1 = intermediate
• O=C(N1CCCCC1)[C@]1(Cc2ccccc2)N=C(c2ccc(OCCCO)cc2)O[C@@H]1c1ccccc1 = low
• C=C[C@@H](COC(=O)OC(C)(C)C)N(Cc1ccc(OC)cc1)S(=O)(=O)c1ccc(Br)cc1 = intermediate
• NC(=O)NCC#Cc1ccc2c(c1)[C@]1(C(=O)N2)[C@H](c2ccccc2OCCO)N2[C@H](c3ccccc3)[C@H](c3ccccc3)OC(=O)[C@H]2[C@@H]1C(=O)Nc1nc2ccccc2s1 = high
• COC(=O)[C@@]1(Cc2ccccc2)N=C(c2ccc(OCCCO)cc2)O[C@H]1c1ccccc1 = low
• CCC(CC)C(O)C1C=CC2C(=O)NC(=O)C2N1Nc1ccccn1 (stereo unspecified) = intermediate
• CN(C)CCCC[C@@H]1NC(=O)[C@H]2C[C@@H](C(=O)NCCCCCCN)[C@@H](c3ccc(O)cc3)N2C1=O = intermediate
• C=CCC(OC(C)=O)[C@@H]1[C@@H](N(Cc2cccc3ccccc23)C(=O)c2ccc(-c3ccccc3)cc2)c2cc(OCCCO)ccc2N1C(=O)c1ccc2ccccc2c1 (stereo partly specified) = intermediate
• CCCC=C(CCC)[C@@H](NC(=O)c1cccs1)c1ccc(C(F)(F)F)cc1 = low
• C=C(/C(=C/C[C@H](OC(C)=O)c1ccc(CO)o1)c1cc(C(=O)OC)ccc1OC)C(C)C = intermediate
• CCCCCN1CC=CC23O[C@@H]4C=CCCOC(=O)C4[C@H]2C(=O)N(CCCCCO)[C@@H]3C1=O (stereo partly specified) = high
• COCC(=C=CC[C@@H](O)c1cccc(OCCO)c1)C[C@@H](O)c1ccccn1 = high
• C=CCOC(=O)[C@H]1[C@@H]2C(=O)O[C@@H](c3ccccc3)[C@@H](c3ccccc3)N2[C@@H](c2ccc(OCCOC(=O)[C@H]3C[C@H]4C(=O)N[C@@H](CCCCN(C)C)C(=O)N4[C@H]3c3ccc(O)cc3)cc2)[C@]12C(=O)Nc1ccc(I)cc12 = high
• COc1cc2c(cc1OC)CN(C(=O)[C@@H]1[C@H]3C(=O)O[C@H](c4ccccc4)[C@H](c4ccccc4)N3[C@H](c3ccccc3OCCO)[C@@]13C(=O)Nc1ccc(C#CCCO)cc13)CC2 = high
